protocolText: Cytotoxicity against MDCK2 cells expressing human NPC1L1 dosed with micelles after 1 hr
Parameters: species or system Canis lupus familiaris
statedConditions: dog, mdck-ii
reportedMetric: Activity

Requested field: Activity. Item: "O=C(Cc1ccccc1)N[C@H]1C(=O)N(c2ccc(F)cc2)[C@@H]1c1ccc(O)cc1"
Non-toxic

Requested field: Activity. Item: "O=C(/C=C/c1ccccc1)N[C@H]1C(=O)N(c2ccc(F)cc2)[C@@H]1c1ccc(O)cc1"
Non-toxic

Requested field: Activity. Item: "O=C(Cc1ccc(F)cc1)N[C@H]1C(=O)N(c2ccc(F)cc2)[C@@H]1c1ccc(O)cc1"
Non-toxic

---

protocolText: Cytotoxicity against MDCK2 cells expressing human NPC1L1 dosed with micelles after 1 hr
Design: species or system Canis lupus familiaris
statedConditions: dog, mdck-ii
reportedMetric: Activity

Requested field: Activity. Item: "O=C(/C=C/c1ccc(F)cc1)N[C@H]1C(=O)N(c2ccc(F)cc2)[C@@H]1c1ccc(O)cc1"
Non-toxic

Requested field: Activity. Item: "O=C1[C@H](CC[C@H](O)c2ccc(F)cc2)[C@@H](c2ccc(O)cc2)N1c1ccc(F)cc1"
Non-toxic

Requested field: Activity. Item: "O=C(N[C@H]1C(=O)N(c2ccc(F)cc2)[C@@H]1c1ccc(O)cc1)c1ccccc1"
Non-toxic

Requested field: Activity. Item: "O=C(N[C@H]1C(=O)N(c2ccc(F)cc2)[C@@H]1c1ccc(O)cc1)c1ccc(F)cc1"
Non-toxic

The origin of these recorded values is ChEMBL document CHEMBL3400023.
